Target: T1, BTN2A2-Fc (recombinant human BTN2A2 Fc-chimera, HEK293-expressed, R&D Systems) (human, UniProt Q8WVV5 33-265)
T1 construct: Bought Fc-chimera; Biotinylated for the yeast display selections; not shown: Fc part of the bought Fc-chimera
T1 sequence (looked up): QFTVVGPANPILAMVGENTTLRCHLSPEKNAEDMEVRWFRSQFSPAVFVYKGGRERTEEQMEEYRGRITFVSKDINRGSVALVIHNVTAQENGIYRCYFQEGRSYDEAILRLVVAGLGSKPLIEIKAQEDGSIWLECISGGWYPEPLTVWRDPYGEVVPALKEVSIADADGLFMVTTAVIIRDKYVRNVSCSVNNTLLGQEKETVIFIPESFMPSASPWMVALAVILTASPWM
Experiment: Octet isoform binding screen
measure: binding result

binder | reported-value
Antibody 1G (antibody, IgG1, V domains shown, isotype hIgG1-297A (IgG1 N297A); kappa germline VK3-15.10) VH: QVQLVQSGAEVKKPGASVKVSCKASGYTFTSYGISWVRQAPGQGLEWMGWISAYNGNTNYAQKLQGRVTMTTDTSTSTAYMELRSLRSDDTAVYYCARLGATVAYFDLWGRGTLVTVSS VL: EIVLTQSPATLSVSPGERATLSCRASQSVSSNLAWYQQKPGQAPRLLIYGASTRATGIPARFSGSGSGTEFTLTISSLQSEDFAVYYCQQDVYWPFTFGGGTKVEIK | no binding
Antibody 3A (antibody, IgG1, V domains shown, isotype hIgG1-297A (IgG1 N297A); kappa germline VK1-05.6) VH: QVQLVQSGAEVKKPGASVKVSCKASGYTFTSYYMHWVRQAPGQGLEWMGIINPGGGSTSYAQKFQGRVTMTRDTSTSTVYMELSSLRSEDTAVYYCARDAGHDYGDMAYWGQGTLVTVSS VL: DIQMTQSPSTLSASVGDRVTITCRASQSISSWLAWYQQKPGKAPKLLIYKASSLESGVPSRFSGSGSGTEFTLTISSLQPDDFATYYCQQYRSFPTFGGGTKVEIK | no binding
Antibody 2A (antibody, IgG1, V domains shown, isotype hIgG1-297A (IgG1 N297A); kappa germline VK3-15.1) VH: QVQLVQSGAEVKKPGASVKVSCKASGYTFTSYYIHWVRQAPGQGLEWMGIINPSGGSTSYAQKFQGRVTMTRDTSTSTVYMELSSLRSEDTAVYYCARATWEALHYWGQGTLVTVSS VL: EIVMTQSPATLSVSPGERATLSCRASQSVGSNLAWYQQKPGQAPRLLIYGASTRATGIPARFSGSGSGTEFTLTISSLQSEDFAVYYCQQYYAWPRTFGGGTKVEIK | no binding
Antibody 3B (antibody, IgG1, V domains shown, isotype hIgG1-297A (IgG1 N297A); kappa germline VK3-11.0) VH: QVQLVQSGAEVKKPGASVKVSCKASGYTFTSYYMHWVRQAPGQGLEWMGIINPSGGSTSYAQKFQGRVTMTRDTSTSTVYMELSSLRSEDTAVYYCARPSGDYSGYDALDVWGQGTMVTVSS VL: EIVLTQSPATLSLSPGERATLSCRASQSVSSYLAWYQQKPGQAPRLLIYDASNRATGIPARFSGSGSGTDFTLTISSLEPEDFAVYYCQQDPYWPITFGGGTKVEIK | no binding

Cited source for all entries: patent US20220064291A1
